test system: Staphylococcus epidermidis; test: Antibacterial activity against methicillin-sensitive Staphylococcus epidermidis 14-1; type: functional
measure.name: log10(MIC) (log10 of the value in µg/mL)
// units: µg/mL (pre-log); metric: MIC; scale: log10

[[record]]
structure_as_smiles = "CCCC[C@H](CN(O)C=O)C(=O)N1CC2(CC2)C[C@H]1C(=O)Nc1ccc(C)c(Nc2nccc(-c3cccnc3)n2)c1"
target_or_test_system = "Staphylococcus epidermidis"
result_number = -1.82

[[record]]
structure_as_smiles = "CCCC[C@H](CN(O)C=O)C(=O)N1CC2(CC2)C[C@H]1c1nnc(-c2ccccn2)o1"
target_or_test_system = "Staphylococcus epidermidis"
result_number = 0.00

[[record]]
structure_as_smiles = "CCCC[C@H](CN(O)C=O)C(=O)N1CC2(CC2)C[C@H]1c1nc(-c2cccnc2)no1"
target_or_test_system = "Staphylococcus epidermidis"
result_number = -0.90

[[record]]
structure_as_smiles = "CCCC[C@H](CN(O)C=O)C(=O)N1CC2(CC2)C[C@H]1C(=O)Nc1cc(C(C)(C)C)on1"
target_or_test_system = "Staphylococcus epidermidis"
result_number = -1.52

[[record]]
structure_as_smiles = "CCCC[C@H](CN(O)C=O)C(=O)N1CC2(CC2)C[C@H]1c1nc2ccccc2[nH]1"
target_or_test_system = "Staphylococcus epidermidis"
result_number = -0.30

[[record]]
structure_as_smiles = "CCCC[C@H](CN(O)C=O)C(=O)N1CC2(CC2)C[C@H]1C(=O)Nc1cccc(Nc2ncccn2)c1"
target_or_test_system = "Staphylococcus epidermidis"
result_number = -0.90


Now consider the entry below.
Field request: log10(MIC) | item: CCCC[C@H](CN(O)C=O)C(=O)N1CCC[C@H]1C(=O)Nc1ccc(F)c[n+]1[O-]
-1.22

###

assay: Cmax in Sprague-Dawley rat at 2 mg/kg, iv; type: ADME, organism-based; parameters: dose 2 mg/kg, route intravenous; conditions: in vivo
Please respond with reported Cmax for every item in the list.
Answers are plain numbers, in ng/mL.

The cases that follow already have their Cmax on record.
[[record]]
structure_as_smiles = "CCCC[C@H](CN(O)C=O)C(=O)N1CC2(CC2)C[C@H]1C(=O)Nc1cc(C(C)(C)C)on1"
result_number = 930

[[record]]
structure_as_smiles = "CCCC[C@H](CN(O)C=O)C(=O)N1CC2(CC2)C[C@H]1c1nc2ccccc2[nH]1"
result_number = 1740

[[record]]
structure_as_smiles = "CCCC[C@H](CN(O)C=O)C(=O)N1CC2(CC2)C[C@H]1C(=O)Nc1ccc(C)c(Nc2nccc(-c3cccnc3)n2)c1"
result_number = 1080

[[record]]
structure_as_smiles = "CCCC[C@H](CN(O)C=O)C(=O)N1CC2(CC2)C[C@H]1C(=O)Nc1ccc(F)c[n+]1[O-]"
result_number = 1780

[[record]]
structure_as_smiles = "CCCC[C@H](CN(O)C=O)C(=O)N1CC2(CC2)C[C@H]1C(=O)Nc1ncc(C)s1"
result_number = 1090


Field request: Cmax | item: CCCC[C@H](CN(O)C=O)C(=O)N1CC2(CC2)C[C@H]1c1nc(-c2cccnc2)no1
929

###

Please respond with reported log10 MIC for every item in the list.
test system: Enterococcus faecalis; test: Antibacterial activity against Enterococcus faecalis 14-1; type: functional
// units: µg/mL (pre-log); metric: MIC; scale: log10

[[record]]
structure_as_smiles = "CCCC[C@H](CN(O)C=O)C(=O)N1CC2(CC2)C[C@H]1C(=O)Nc1ccc(C)c(Nc2nccc(-c3cccnc3)n2)c1"
target_or_test_system = "Enterococcus faecalis"
measure_name = "log10 MIC"
result_number = -1.52


Required: log10 MIC, one value per compound below.
1. CCCC[C@H](CN(O)C=O)C(=O)N1CC2(CC2)C[C@H]1C(=O)Nc1cc(C(C)(C)C)on1
2. CCCC[C@H](CN(O)C=O)C(=O)N1CC2(CC2)C[C@H]1c1nnc2ccccn12
3. CCCC[C@H](CN(O)C=O)C(=O)N1CC2(CC2)C[C@H]1C(=O)Nc1cccc(Nc2ncccn2)c1
4. CCCC[C@H](CN(O)C=O)C(=O)N1CC2(CC2)C[C@H]1c1nc(-c2cccnc2)no1
5. CCCC[C@H](CN(O)C=O)C(=O)N1CC2(CC2)C[C@H]1C(=O)Nc1ccc(F)c[n+]1[O-]
6. CCCC[C@H](CN(O)C=O)C(=O)N1CC2(CC2)C[C@H]1c1nnc(-c2ccccn2)o1
7. CO[C@H]1/C=C/O[C@@]2(C)Oc3c(C)c(O)c4c(O)c(c(/C=N/N5CCN(C)CC5)c(O)c4c3C2=O)NC(=O)/C(C)=C\C=C\[C@H](C)[C@H](O)[C@@H](C)[C@@H](O)[C@@H](C)[C@H](OC(C)=O)[C@@H]1C

1: -0.30; 2: 0.60; 3: -0.30; 4: 0.30; 5: -0.60; 6: 0.60; 7: 0.00

Required: log10 MIC, one value per compound below.
1. CCCC[C@H](CN(O)C=O)C(=O)N1CCC[C@H]1C(=O)Nc1ccc(F)c[n+]1[O-]
2. CCCC[C@H](CN(O)C=O)C(=O)N1CC2(CC2)C[C@H]1C(=O)Nc1nccc(-c2cccnc2)n1
3. CCCC[C@H](CN(O)C=O)C(=O)N1CC2(CC2)C[C@H]1C(=O)Nc1ncccc1F
4. CCCC[C@H](CN(O)C=O)C(=O)N1CC2(CC2)C[C@H]1C(=O)Nc1ncc(C)s1
5. CCCC[C@H](CN(O)C=O)C(=O)N1CC2(CC2)C[C@H]1C(=O)Nc1cc[nH]n1
6. Cc1nc(NNC(=O)[C@H](CC2CCCC2)CN(O)C=O)c(F)c(N2CCN3CCOC[C@@H]3C2)n1
7. CCCC[C@H](CN(O)C=O)C(=O)N1CC2(CC2)C[C@H]1c1nc2ccccc2[nH]1
8. C[C@H]1COc2c(N3CCN(C)CC3)c(F)cc3c(=O)c(C(=O)O)cn1c23.C[C@H]1COc2c(N3CCN(C)CC3)c(F)cc3c(=O)c(C(=O)O)cn1c23.O

1: 0.30; 2: -0.30; 3: 0.30; 4: -0.90; 5: 1.81; 6: 0.90; 7: 0.90; 8: 0.30

The measured values listed here are drawn from ChEMBL document CHEMBL3822420.
